Taken from ChEMBL document CHEMBL2202978.

assay: Inhibition of HCV subtype 1a NS3/4A protease (Ac-DE-Dap(QXL520)-EE-Abu-psi-[COO]-ASC(5-FAMsp)-NH2 as substrate by FRET analysis; design: species or system Hepatitis C virus subtype 1a
measured.parameter: IC50 (nM)
// return numeric value only (unit: nM, not printed)

Recall and state the measured IC50 for COc1ccc2c(O[C@@H]3C[C@H]4C(=O)N[C@]5(C(=O)NS(=O)(=O)C6CC6)C[C@H]5/C=C\CCCCC[C@H](NC(=O)C(=O)N5CCCCC5)C(=O)N4C3)cc(-c3nc(C4CC4)cs3)nc2c1C .
1

Recall and state the measured IC50 for COc1ccc2c(O[C@@H]3C[C@H]4C(=O)N[C@]5(C(=O)NS(=O)(=O)C6CC6)C[C@H]5/C=C\CCCCC[C@H](N/C(=N\C#N)NC(C)(C)C)C(=O)N4C3)cc(-c3nc(C4CC4)cs3)nc2c1C .
2.5

Recall and state the measured IC50 for CCN(CC)C(=O)N[C@H]1CCCCC/C=C\[C@@H]2C[C@@]2(C(=O)NS(=O)(=O)C2CC2)NC(=O)[C@@H]2C[C@@H](Oc3cc(-c4nc(C5CC5)cs4)nc4c(C)c(OC)ccc34)CN2C1=O .
0.6

Recall and state the measured IC50 for COc1ccc2c(O[C@@H]3C[C@H]4C(=O)N[C@]5(C(=O)NS(=O)(=O)C6CC6)C[C@H]5/C=C\CCCCC[C@H](N5CCCC5=O)C(=O)N4C3)cc(-c3nc(C4CC4)cs3)nc2c1C .
20

Recall and state the measured IC50 for CCC[C@H](NC(=O)[C@@H]1[C@H]2CCC[C@H]2CN1C(=O)[C@@H](NC(=O)[C@@H](NC(=O)c1cnccn1)C1CCCCC1)C(C)(C)C)C(=O)C(=O)NC1CC1 [TELAPREVIR] .
500

Recall and state the measured IC50 for CC(C)(C)OC(=O)N[C@H]1CCCCC/C=C\[C@@H]2C[C@@]2(C(=O)NS(=O)(=O)C2CC2)NC(=O)[C@@H]2C[C@@H](OC(=O)N3Cc4cccc(F)c4C3)CN2C1=O [DANOPREVIR] .
0.7

Recall and state the measured IC50 for CCOC(=O)C(=O)N[C@H]1CCCCC/C=C\[C@@H]2C[C@@]2(C(=O)NS(=O)(=O)C2CC2)NC(=O)[C@@H]2C[C@@H](Oc3cc(-c4nc(C5CC5)cs4)nc4c(C)c(OC)ccc34)CN2C1=O .
1

====

test: Terminal half life in Sprague-Dawley rat at 5 mg/kg, po and 1 mg/kg, iv; type: ADME, organism-based; settings: in vivo, read-out: beta t1/2 (converted)
For each record, write down the corresponding half-life.
// return numeric value only (unit: h, not printed)

Recall and state the measured half-life for CCN(CC)C(=O)N[C@H]1CCCCC/C=C\[C@@H]2C[C@@]2(C(=O)NS(=O)(=O)C2CC2)NC(=O)[C@@H]2C[C@@H](Oc3cc(-c4nc(C5CC5)cs4)nc4c(C)c(OC)ccc34)CN2C1=O .
1.4

Recall and state the measured half-life for COc1ccc2c(O[C@@H]3C[C@H]4C(=O)N[C@]5(C(=O)NS(=O)(=O)C6CC6)C[C@H]5/C=C\CCCCC[C@H](NC(=O)C5(OC)CCC5)C(=O)N4C3)cc(-c3nc(C4CC4)cs3)nc2c1C .
0.99

====

assay: AUC in Sprague-Dawley rat at 1.23 mg/kg, iv; type: ADME, organism-based; set-up: dose 1.23 mg/kg, route intravenous; settings: plasma
measured.parameter: AUC (ng·h/mL)
// return numeric value only (unit: ng·h/mL, not printed)

Recall and state the measured AUC for COc1ccc2c(O[C@@H]3C[C@H]4C(=O)N[C@]5(C(=O)NS(=O)(=O)C6CC6)C[C@H]5/C=C\CCCCC[C@H](NC(=O)OC(C)(C)C)C(=O)N4C3)cc(-c3nc(C4CC4)cs3)nc2c1C .
381
